B1: library; a variant is named by its letters at N, in order (parent)
chain: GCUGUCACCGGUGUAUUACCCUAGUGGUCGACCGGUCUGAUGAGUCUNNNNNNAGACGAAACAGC

Variants of: B1
Test: FACS-Seq fitted mean relative fluorescence mCherry/BFP with ligand (log10 relative fluorescence); ligand: hypoxanthine (xanthine aptamer); ligand concentration (+) FACS-Seq: 5 mM; higher = higher reporter protein expression
Conditions: HEK293T, ligand present: yes
Categories are defined by ranges of FACS-Seq fitted mean (log10), namely Low: < 0.1; Medium: ≥ 0.1 and < 0.6; High: ≥ 0.6

QUERY: GET /class?item= AGCGUG
RESULT: Medium

QUERY: For the record AAUGCG , report the class its FACS-Seq fitted mean (log10) corresponds to.
RESULT: Medium

QUERY: # bin label for GUGAUG
RESULT: High

QUERY: Please report the category associated with UUCAAU , nothing else.
RESULT: Low

QUERY: Which category does the recorded FACS-Seq fitted mean (log10) put GCCGAU in?
RESULT: Low

QUERY: Into which category would you place AACCGC ?
RESULT: Medium

QUERY: Input AUCCAU ; output its category
RESULT: High

QUERY: Looking at GCAUGC , which class would you pick?
RESULT: Low

QUERY: Looking at ACAUAG , which class would you pick?
RESULT: Medium

QUERY: GET /class?item= AGACAG
RESULT: Medium

Source listed as the supplement of paper PMC6757056.
